target: UniProt P34969
Mark each entry YES if its Ki sits below 1 µM, and NO for all others.

Record excerpt, results attached:
>  <Compound>
O=C(NC1CCN(CCOc2cccc(Cl)c2Cl)C1)c1ccc2c(c1)OCCO2 (stereo unspecified)

>  <Measured On>
UniProt P34969

>  <Label Value>
YES

$$$$
>  <Compound>
CSc1ccccc1OCCN1CCC(NC(=O)c2cccs2)CC1

>  <Measured On>
UniProt P34969

>  <Label Value>
NO

$$$$

INPUT: Is Ki of O=S(=O)(NC1CCN(CCOc2cc(Cl)ccc2Cl)C1)c1ccc(F)c(F)c1 (stereo unspecified) strictly below 1 µM?
OUTPUT: YES

INPUT: Now consider CCOc1ccccc1C(=O)NC1CCN(CCOc2ccccc2C(C)C)CC1 and answer again.
OUTPUT: YES

INPUT: Entry CC(C)c1ccccc1OCCN1CCC(NS(=O)(=O)c2ccc(F)cc2)CC1 please
OUTPUT: YES

INPUT: Subsequent entry: CC(C)c1ccccc1OCCN1CCC(NS(=O)(=O)c2cccc3cccnc23)C1 (stereo unspecified)
OUTPUT: YES

INPUT: Entry to check: Cc1ccccc1C(=O)NCC1CCN(CCOc2cccc(-c3ccccc3)c2)CC1
OUTPUT: NO

INPUT: Subsequent entry: CCOc1ccccc1C(=O)NCC1CCN(CCOc2ccccc2SC)CC1
OUTPUT: NO

* * *

organism: Homo sapiens; experiment: Selectivity ratio of Ki for human 5-HT1A receptor to Ki for human 5-HT7b receptor
Quantity Kind: Ratio Ki

Illustrative cases are given below, each with its answer.
>  <Compound>
O=S(=O)(NCC1CCN(CCOc2cccc(F)c2)CC1)c1cccs1

>  <Ratio Ki>
< 1

$$$$
>  <Compound>
O=S(=O)(NC1CCN(CCOc2cccc3c2CCCC3)C1)c1cc(F)ccc1F (stereo not drawn)

>  <Ratio Ki>
< 1

$$$$

Read the next record carefully.
INPUT: Field request: Ratio Ki | item: CSc1ccccc1OCCN1CCC(NS(=O)(=O)c2cccc(Cl)c2)C1 (stereo not drawn)
OUTPUT: < 1

* * *

What follows is a collection of Ki values obtained with D(2) dopamine receptor (Homo sapiens, UniProt P14416).
Sequence (P14416 whole entry): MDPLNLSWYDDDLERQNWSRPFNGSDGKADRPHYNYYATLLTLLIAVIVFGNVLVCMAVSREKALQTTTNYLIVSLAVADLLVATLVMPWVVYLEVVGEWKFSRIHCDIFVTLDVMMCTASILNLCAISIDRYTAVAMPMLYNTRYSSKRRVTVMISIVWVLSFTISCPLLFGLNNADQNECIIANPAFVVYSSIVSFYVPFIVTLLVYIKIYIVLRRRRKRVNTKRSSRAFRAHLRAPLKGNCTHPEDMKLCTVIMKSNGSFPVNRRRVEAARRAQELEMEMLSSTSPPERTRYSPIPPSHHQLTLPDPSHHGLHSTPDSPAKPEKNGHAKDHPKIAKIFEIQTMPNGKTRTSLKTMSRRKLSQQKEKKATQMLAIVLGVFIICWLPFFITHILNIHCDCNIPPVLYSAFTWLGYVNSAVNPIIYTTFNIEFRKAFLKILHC
One number for each entry, in nM.

In the examples that follow, each entry is paired with its recorded Ki.
>  <Compound>
CC(C)c1ccccc1OCCN1CCC(NS(=O)(=O)c2ccc(F)cc2)CC1

>  <Quantity Kind>
Ki

>  <Quantitative Readout>
51

$$$$
>  <Compound>
O=S(=O)(NC1CCN(CCOc2cccc(Cl)c2Cl)C1)c1ccc(Cl)s1 (configuration not stated)

>  <Quantity Kind>
Ki

>  <Quantitative Readout>
67

$$$$

For every record below, what is its Ki?
1. O=S(=O)(NC1CCN(CCOc2ccccc2-c2ccccc2)C1)c1cc(F)ccc1F (configuration not stated)
2. CC(C)c1ccccc1OCCN1CCC(NS(=O)(=O)c2cccc(Cl)c2)C1 (configuration not stated)
3. CC(C)c1ccccc1OCCN1CCC(CNS(=O)(=O)c2ccc(F)cc2)CC1
4. O=S(=O)(NC1CCN(CCOc2cccc3c2CCCC3)C1)c1ccc(F)cc1 (configuration not stated)
5. O=S(=O)(NCC1CCN(CCOc2ccccc2-c2ccccc2)CC1)c1ccc(F)cc1

OUTPUT:
1: 18; 2: 25; 3: 50; 4: 72; 5: 46

* * *

This document collects Ki values reported for 5-hydroxytryptamine receptor 7 (Homo sapiens, UniProt P34969).
Enter the number, and then the unit.

Solved entries (count: 2):
>  <Smi>
O=S(=O)(NCC1CCN(CCOc2cccc(F)c2)CC1)c1cccs1

>  <Ki>
2220 nM

$$$$
>  <Smi>
CC(C)c1ccccc1OCCN1CCC(CNS(=O)(=O)c2ccc(F)cc2)CC1

>  <Ki>
60 nM

$$$$

Next up:
INPUT: Entry O=C(NC1CCN(CCSc2ccccc2-c2ccccc2)CC1)c1ccc2ccccc2n1 , system 5-hydroxytryptamine receptor 7 (Homo sapiens, UniProt P34969): what Ki was measured?
OUTPUT: 865 nM

* * *

# Ki per entry for D(2) dopamine receptor (Homo sapiens, UniProt P14416)
Give bare numbers, in nM.

>  <Molecule>
O=C(NC1CCN(CCOc2ccccc2-c2ccccc2)C1)c1ccc2ccccc2n1 (stereo not given)

>  <Ki [nM]>
24

$$$$
>  <Molecule>
CSc1ccccc1OCCN1CCC(CNS(=O)(=O)c2cccc(Cl)c2)CC1

>  <Ki [nM]>
50

$$$$
>  <Molecule>
CC(C)c1ccccc1OCCN1CC[C@@H](NS(=O)(=O)c2ccc(Cl)s2)C1

>  <Ki [nM]>
20

$$$$

Provide the reported Ki of each entry below, same order.
1. O=S(=O)(NCC1CCN(CCOc2ccccc2-c2ccccc2)CC1)c1ccc(Cl)s1
2. O=C(NC1CCN(CCOc2ccccc2-c2ccccc2)C1)c1cccc(F)c1F (stereo not given)
3. CC(C)c1ccccc1OCCN1CC[C@H](NS(=O)(=O)c2ccc(Cl)s2)C1
4. CSc1ccccc1OCCN1CCC(NS(=O)(=O)c2ccc(F)cc2)C1 (stereo not given)

OUTPUT:
1: 32; 2: 15; 3: 25; 4: 41

Provide reported Ki for each item, in the same order as listed.
1. O=S(=O)(NC1CCN(CCOc2cccc3c2CCCC3)C1)c1cc(F)ccc1F (stereo not given)
2. O=S(=O)(NC1CCN(CCOc2cccc(F)c2)C1)c1ccc(F)c(F)c1 (stereo not given)
3. CC(C)c1ccccc1OCCN1CCC(NC(=O)c2ccc3ccccc3n2)C1 (stereo not given)

OUTPUT:
1. 60
2. 523
3. 79
